RUN_DESCRIPTION: Pharmacokinetics after single intraarticular injection in beagle dogs (plasma and synovial fluid)
Type: in vivo
CONDITION_DETAILS: both sexes, dog, plasma, single intraarticular injection 3 mg/kg, mean
PROPERTY_MEASURED: Cmax (ng/mL)
One number for each entry, in ng/mL.

Task item: Note Cmax for the compound shown: CO[C@H]1/C=C/O[C@@]2(C)Oc3c(C)c(O)c4c(O)c(c(/C=N/N5CCC(N(C)C6([C@@H]7CCN(c8c(F)cn9c(=O)c(C(=O)O)cc(C%10CC%10)c9c8C)C7)CC6)CC5)c(O)c4c3C2=O)NC(=O)/C(C)=C\C=C\[C@H](C)[C@H](O)[C@@H](C)[C@@H](O)[C@@H](C)[C@H](OC(C)=O)[C@@H]1C
Reply: 736
